// provenance: BigSolDB 2.1

# settings: in n-butanol, 283.15 K

smiles.structure | solubility (mole fraction)
O=C1CCc2cc(O)ccc2N1 | 0.00201

* * *

# settings: in THF, 283.15 K

smiles.structure | solubility (mole fraction)
O=C1CCc2cc(O)ccc2N1 | 0.00277

* * *

# settings: in acetonitrile, 283.15 K

smiles.structure | solubility (mole fraction)
O=C1CCc2cc(O)ccc2N1 | 0.000345

* * *

# settings: in isobutanol, 298.15 K

smiles.structure | solubility (mole fraction)
O=C1CCc2cc(O)ccc2N1 | 0.00229

* * *

# settings: in n-butanol, 293.15 K

smiles.structure | solubility (mole fraction)
O=C1CCc2cc(O)ccc2N1 | 0.00269

* * *

# settings: in ethyl acetate, 293.15 K

smiles.structure | solubility (mole fraction)
O=C1CCc2cc(O)ccc2N1 | 0.00086

* * *

# settings: in isopropanol, 283.15 K

smiles.structure | solubility (mole fraction)
O=C1CCc2cc(O)ccc2N1 | 0.00226

* * *

# settings: in isopropanol, 288.15 K
quantity.name: solubility (mole fraction)

smiles.structure | test.value
O=C1CCc2cc(O)ccc2N1 | 0.0026

* * *

# settings: in isobutanol, 303.15 K
quantity.name: solubility (mole fraction)

smiles.structure | test.value
O=C1CCc2cc(O)ccc2N1 | 0.00268

* * *

# settings: in ethanol, 278.15 K

smiles.structure | solubility (mole fraction)
O=C1CCc2cc(O)ccc2N1 | 0.00214

* * *

# settings: in ethanol, 298.15 K
quantity.name: solubility (mole fraction)

smiles.structure | quantity.name | test.value
O=C1CCc2cc(O)ccc2N1 | solubility (mole fraction) | 0.00373

* * *

# settings: in methyl acetate, 288.15 K

smiles.structure | solubility (mole fraction)
O=C1CCc2cc(O)ccc2N1 | 0.00188

* * *

# settings: in acetonitrile, 293.15 K
quantity.name: solubility (mole fraction)

smiles.structure | test.value
O=C1CCc2cc(O)ccc2N1 | 0.00048

* * *

# settings: in isopropanol, 323.15 K

smiles.structure | solubility (mole fraction)
O=C1CCc2cc(O)ccc2N1 | 0.00721

* * *

# settings: in n-butanol, 288.15 K

smiles.structure | solubility (mole fraction)
O=C1CCc2cc(O)ccc2N1 | 0.00232

* * *

# settings: in methanol, 278.15 K

smiles.structure | solubility (mole fraction)
O=C1CCc2cc(O)ccc2N1 | 0.00224

* * *

# settings: in isopropanol, 293.15 K

smiles.structure | solubility (mole fraction)
O=C1CCc2cc(O)ccc2N1 | 0.003

* * *

# settings: in ethyl acetate, 323.15 K
quantity.name: solubility (mole fraction)

smiles.structure | test.value
O=C1CCc2cc(O)ccc2N1 | 0.00131

* * *

# settings: in ethyl acetate, 283.15 K
quantity.name: solubility (mole fraction)

smiles.structure | test.value
O=C1CCc2cc(O)ccc2N1 | 0.000723

* * *

# settings: in THF, 323.15 K

smiles.structure | solubility (mole fraction)
O=C1CCc2cc(O)ccc2N1 | 0.00651

* * *

# settings: in ethyl acetate, 278.15 K

smiles.structure | solubility (mole fraction)
O=C1CCc2cc(O)ccc2N1 | 0.000666

* * *

# settings: in methanol, 318.15 K
quantity.name: solubility (mole fraction)

smiles.structure | test.value
O=C1CCc2cc(O)ccc2N1 | 0.00745

* * *

# settings: in THF, 308.15 K

smiles.structure | solubility (mole fraction)
O=C1CCc2cc(O)ccc2N1 | 0.00473
